target_under_test: Protease (Human immunodeficiency virus 1, UniProt Q9YQ12)
Sequence (Q9YQ12 whole entry): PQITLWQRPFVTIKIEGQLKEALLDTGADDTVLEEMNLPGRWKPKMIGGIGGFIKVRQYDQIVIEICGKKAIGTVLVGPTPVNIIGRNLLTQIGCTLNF
assay_explanation: Inhibition of wild type C-South African Human immunodeficiency virus 1 protease using chromogenic peptide H-1048 as substrate by UV spectrophotometric analysis
Set-up: species or system C-SA
For each entry below, report its IC50 value.
Answers are plain numbers, in µM.

>  <compound>
O=C(CC1(O)C2C3CC4C5C3C1C5C(O)(CC(=O)N[C@@H](Cc1c[nH]c3ccccc13)C(=O)O)C42)N[C@@H](Cc1c[nH]c2ccccc12)C(=O)O (some centres undefined)

>  <metric>
IC50

>  <result>
5

$$$$

Quick batch: IC50 for everything below.
1. CC(C)[C@H](NC(=O)CC1(O)C2C3CC4C5C3C1C5C(O)(CC(=O)N[C@H](C(=O)O)C(C)C)C42)C(=O)O (some centres undefined)
2. O=C(CC1(O)C2C3CC4C5C3C1C5C(O)(CC(=O)N[C@@H](Cc1ccc(O)cc1)C(=O)O)C42)N[C@@H](Cc1ccc(O)cc1)C(=O)O (some centres undefined)
3. O=C(CC1(O)C2C3CC4C5C3C1C5C(O)(CC(=O)N[C@H](C(=O)O)c1ccccc1)C42)N[C@H](C(=O)O)c1ccccc1 (some centres undefined)

# output
[10, 10, 5]

---

target_under_test: Protease (Human immunodeficiency virus 1)
assay_explanation: Inhibition of wild type C-South African Human immunodeficiency virus 1 protease
Set-up: species or system C-SA
For each entry below, report its IC50 value.
Answers are plain numbers, in nM.

>  <compound>
CC[C@H](C)[C@H](NC(=O)[C@H](C)NC(=O)[C@H](CCC(=O)O)NC12NC(=O)C3(O)C4C5CC(C6C5C3C61)C42)C(=O)N[C@@H](CO)C(=O)O (some centres not stated)

>  <IC50 [nM]>
78

$$$$

Consider now this further compound.
# input What value of IC50 has been reported for the following compound? CC(C)[C@H](NC12OC3(O)C4C5CC(C6C5C3C61)C42)C(=O)N[C@@H](C)C(=O)O (some centres not stated)
# output 600
